target: Mitogen-activated protein kinase 11 (Homo sapiens) (UniProt Q15759); test: Inhibition of p38beta2 at 10 uM
Sequence (Q15759 whole entry): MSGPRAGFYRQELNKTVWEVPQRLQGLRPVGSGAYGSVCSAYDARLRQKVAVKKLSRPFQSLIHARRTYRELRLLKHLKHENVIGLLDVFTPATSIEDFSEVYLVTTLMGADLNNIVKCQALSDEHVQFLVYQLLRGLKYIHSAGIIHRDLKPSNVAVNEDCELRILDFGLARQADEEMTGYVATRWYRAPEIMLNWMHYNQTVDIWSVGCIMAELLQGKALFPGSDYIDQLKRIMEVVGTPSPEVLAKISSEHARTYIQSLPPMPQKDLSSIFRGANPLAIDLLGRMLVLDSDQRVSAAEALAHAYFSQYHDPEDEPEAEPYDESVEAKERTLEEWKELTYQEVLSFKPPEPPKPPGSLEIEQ
The source made the active and inactive calls. No cut-off for these calls is given here.

# compound, Activity
measured = [
    ("CCCc1cc(N2CCC(O)CC2)nc2sc(C(N)=O)c(N)c12", "inactive"),
    ("CCCc1cc(N2CCC(N)CC2)nc2sc(C(N)=O)c(N)c12", "inactive"),
    ("CCCc1cc(N2CCNCC2)nc2sc(C(N)=O)c(N)c12", "inactive"),
    ("CCCc1cc(N2CCCC(O)C2)nc2sc(C(N)=O)c(N)c12 (centres undefined)", "inactive"),
]

====

system: Mus musculus; test: Inhibition of LPS-induced TNFalpha production in mouse at 30 mg/kg, po administered 60 mins before LPS challenge; type: functional
Readings of inhibition in vivo at 30 mg/kg for the listed molecules
Just the number in %, nothing appended.

Worked cases, inhibition in vivo at 30 mg/kg given:
# molecule, assaySystem, unitInfo, resultValue
measured = [
    ("CCCc1cc(N2CCCC(O)C2)nc2sc(C(N)=O)c(N)c12 (centres undefined)", "Mus musculus", "%", 67),
    ("CCCc1cc(N2CCNCC2)nc2sc(C(N)=O)c(N)c12", "Mus musculus", "%", 35),
]

inhibition in vivo at 30 mg/kg for `CCCc1cc(N2CCC(O)CC2)nc2sc(C(N)=O)c(N)c12` is 94

// sample `CCCc1cc(N2CCC(N)CC2)nc2sc(C(N)=O)c(N)c12` , its inhibition in vivo at 30 mg/kg was 14

====

target: Inhibitor of nuclear factor kappa-B kinase subunit beta (Homo sapiens, UniProt O14920); test: Inhibition of Flag epitope-tagged IKK-beta preincubated for 5 mins by scintillation proximity assay
Sequence (O14920 whole entry): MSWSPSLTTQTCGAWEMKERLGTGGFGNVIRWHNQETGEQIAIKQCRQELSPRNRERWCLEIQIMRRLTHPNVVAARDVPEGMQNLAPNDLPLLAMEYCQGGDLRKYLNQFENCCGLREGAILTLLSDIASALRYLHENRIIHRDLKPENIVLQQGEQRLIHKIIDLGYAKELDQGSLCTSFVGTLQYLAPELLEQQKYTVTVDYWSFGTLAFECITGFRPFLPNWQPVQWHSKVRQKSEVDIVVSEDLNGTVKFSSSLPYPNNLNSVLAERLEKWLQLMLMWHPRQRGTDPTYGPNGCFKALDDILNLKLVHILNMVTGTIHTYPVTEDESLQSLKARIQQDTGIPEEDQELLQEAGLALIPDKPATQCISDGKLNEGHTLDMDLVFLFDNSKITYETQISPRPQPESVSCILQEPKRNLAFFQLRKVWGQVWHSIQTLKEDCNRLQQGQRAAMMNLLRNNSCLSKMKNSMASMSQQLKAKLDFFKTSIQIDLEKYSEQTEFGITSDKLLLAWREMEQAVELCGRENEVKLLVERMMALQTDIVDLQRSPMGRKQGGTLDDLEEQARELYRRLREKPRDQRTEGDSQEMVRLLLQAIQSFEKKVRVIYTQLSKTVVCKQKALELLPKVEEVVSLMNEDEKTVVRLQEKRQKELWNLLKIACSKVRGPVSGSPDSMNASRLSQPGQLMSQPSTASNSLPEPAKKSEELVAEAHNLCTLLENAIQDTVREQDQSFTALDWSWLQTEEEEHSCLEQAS
# maps each entry to its pIC50
Recall that pIC50 is obtained by taking minus log10 of the concentration measured in molar.

Answered examples (2):
# smilesCode, assaySystem, reportedMetric, resultValue
records = [
    ("Cc1cc(CC(C)C)c2c(N)c(C(N)=O)sc2n1", "Inhibitor of nuclear factor kappa-B kinase subunit beta (Homo sapiens, UniProt O14920)", "pIC50", 5.60),
    ("CCOc1ccnc2sc(C(N)=O)c(N)c12", "Inhibitor of nuclear factor kappa-B kinase subunit beta (Homo sapiens, UniProt O14920)", "pIC50", 5.70),
]

Kindly review the next compound as well.
// recorded pIC50 for `CCCc1cc(N2CCN(C(N)=O)CC2)nc2sc(C(N)=O)c(N)c12` : 6.82

====

target: Rho-associated protein kinase 2 (Homo sapiens) (UniProt O75116); experiment: Inhibition of ROCK-2 at 10 uM
Sequence (O75116 whole entry, looked up): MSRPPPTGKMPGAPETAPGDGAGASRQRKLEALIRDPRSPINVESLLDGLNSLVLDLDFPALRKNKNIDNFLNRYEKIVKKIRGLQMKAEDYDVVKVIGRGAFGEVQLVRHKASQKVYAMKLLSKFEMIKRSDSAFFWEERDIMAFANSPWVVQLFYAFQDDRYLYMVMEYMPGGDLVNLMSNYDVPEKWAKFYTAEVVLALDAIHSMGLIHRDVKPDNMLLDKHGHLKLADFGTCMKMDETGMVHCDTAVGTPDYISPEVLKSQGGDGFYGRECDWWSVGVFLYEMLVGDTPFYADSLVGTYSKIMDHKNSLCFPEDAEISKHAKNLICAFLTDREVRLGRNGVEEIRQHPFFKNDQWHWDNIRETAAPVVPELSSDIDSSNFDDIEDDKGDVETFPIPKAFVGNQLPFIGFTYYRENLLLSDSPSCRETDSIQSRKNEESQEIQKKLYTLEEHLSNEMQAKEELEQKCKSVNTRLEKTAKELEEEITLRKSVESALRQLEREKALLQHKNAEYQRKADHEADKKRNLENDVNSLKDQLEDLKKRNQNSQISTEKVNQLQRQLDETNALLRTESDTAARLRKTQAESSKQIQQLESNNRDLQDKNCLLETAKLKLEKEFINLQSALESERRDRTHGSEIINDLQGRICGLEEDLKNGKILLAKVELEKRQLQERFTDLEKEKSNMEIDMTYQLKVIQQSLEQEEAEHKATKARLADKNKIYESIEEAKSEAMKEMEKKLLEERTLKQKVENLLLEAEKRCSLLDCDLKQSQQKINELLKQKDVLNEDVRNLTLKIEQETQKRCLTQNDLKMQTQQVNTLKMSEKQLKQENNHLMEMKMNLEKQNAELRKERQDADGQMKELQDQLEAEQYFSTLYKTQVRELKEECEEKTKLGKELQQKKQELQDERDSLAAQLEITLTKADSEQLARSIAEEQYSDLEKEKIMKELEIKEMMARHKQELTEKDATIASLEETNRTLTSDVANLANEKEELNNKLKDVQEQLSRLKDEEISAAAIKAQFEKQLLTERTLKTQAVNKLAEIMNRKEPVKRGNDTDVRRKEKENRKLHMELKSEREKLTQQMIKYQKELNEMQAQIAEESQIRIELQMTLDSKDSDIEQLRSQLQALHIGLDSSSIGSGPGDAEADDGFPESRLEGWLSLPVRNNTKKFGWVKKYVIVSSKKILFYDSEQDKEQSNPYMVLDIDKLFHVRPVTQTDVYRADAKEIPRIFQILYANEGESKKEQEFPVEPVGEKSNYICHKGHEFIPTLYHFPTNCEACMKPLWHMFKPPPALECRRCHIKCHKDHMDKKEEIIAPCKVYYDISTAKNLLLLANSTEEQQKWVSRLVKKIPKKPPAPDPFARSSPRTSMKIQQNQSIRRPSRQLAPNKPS
The source made the active and inactive calls. The rule behind the calls is not given here.
reportedMetric: Activity

# compound, reportedMetric, resultValue
rows = [
    ("CCCc1cc(N2CCC(O)CC2)nc2sc(C(N)=O)c(N)c12", "Activity", "inactive"),
    ("CCCc1cc(N2CCNCC2)nc2sc(C(N)=O)c(N)c12", "Activity", "inactive"),
    ("CCCc1cc(N2CCCC(O)C2)nc2sc(C(N)=O)c(N)c12 (centres undefined)", "Activity", "inactive"),
    ("CCCc1cc(N2CCC(N)CC2)nc2sc(C(N)=O)c(N)c12", "Activity", "inactive"),
]

====

target: Inhibitor of nuclear factor kappa-B kinase subunit beta (Homo sapiens, UniProt O14920); experiment: Inhibition of Flag epitope-tagged IKK-beta preincubated for 5 mins by scintillation proximity assay
Threshold 7 µM. IC50 below it: MET. IC50 at it or above: NOT MET.

# compound, labelValue
data = [
    ("CCCc1cc(N2CCCC(O)C2)nc2sc(C(N)=O)c(N)c12 (centres undefined)", "MET"),
]

Would you kindly verify if IC50 of `Cc1cc(-c2ccco2)c2c(N)c(C(N)=O)sc2n1` is strictly less than 7 µM?
MET

Is 7 µM strictly greater than the compound's reported IC50? compound: `Cc1cc(CO)c2c(N)c(C(N)=O)sc2n1`
NOT MET

is_below(IC50, 7 µM) for `CCCc1cc(N2CCC(NS(C)(=O)=O)CC2)nc2sc(C(N)=O)c(N)c12` ?
MET

Consider the compound `CCCOc1ccnc2sc(C(N)=O)c(N)c12` . Is its IC50 strictly less than 7 µM?
MET

For `Cc1cc(-c2ccc(Cl)cc2)c2c(N)c(C(N)=O)sc2n1` , is the recorded IC50 below the cut-off of 7 µM?
NOT MET

Please let me know if `Cc1cc(-c2ccccc2)c2c(N)c(C(N)=O)sc2n1` shows IC50 below 7 µM.
NOT MET

API: query returns whether the compound falls strictly under 7 µM in IC50. Query: `Cc1cc(-c2cc3ccccc3o2)c2c(N)c(C(N)=O)sc2n1`
NOT MET

Consider `Cc1cc(OCCN)nc2sc(C(N)=O)c(N)c12` . Does its IC50 lie strictly below 7 µM?
MET

Quick check: does `Cc1ccc(-c2cc(C)nc3sc(C(N)=O)c(N)c23)cc1` have IC50 under 7 µM?
NOT MET

Bench note: check whether `Cc1cc(OCCCN)nc2sc(C(N)=O)c(N)c12` shows IC50 below 7 µM
NOT MET

Field: below-cutoff. Rule: recorded IC50 strictly less than 7 µM. Subject: `Cc1cc(N2CCC(O)CC2)nc2sc(C(N)=O)c(N)c12`
MET

Below 7 µM on IC50? Entry `Cc1cc(N2CCOCC2)nc2sc(C(N)=O)c(N)c12`
MET

====

target: Inhibitor of nuclear factor kappa-B kinase subunit beta (Homo sapiens); experiment: Inhibition of Flag epitope-tagged IKK-beta preincubated for 5 mins by scintillation proximity assay
pIC50 by entry:
Hey, just a heads up that pIC50 is the negative log base 10 of the concentration in molar.

# smilesCode, resultValue
measured = [
    ("CCCc1cc(N2CCC(C(N)=O)CC2)nc2sc(C(N)=O)c(N)c12", 5.89),
    ("CCCc1cc(C)nc2sc(C(N)=O)c(N)c12", 5.89),
]

// next entry
For record `Cc1cc(-c2ccc(S(C)(=O)=O)cc2)c2c(N)c(C(N)=O)sc2n1` the listed pIC50 is 5.89

====

molecular target: Inhibitor of nuclear factor kappa-B kinase subunit beta (Homo sapiens, UniProt O14920); assay: Inhibition of Flag epitope-tagged IKK-beta preincubated for 5 mins by scintillation proximity assay
Measured pIC50, listed per entry.
// pIC50: -log10(molar conc.)

Solved cases (4 shown):
# smilesCode, assaySystem, pIC50
records = [
    ("COCCOc1ccnc2sc(C(N)=O)c(N)c12", "Inhibitor of nuclear factor kappa-B kinase subunit beta (Homo sapiens, UniProt O14920)", 4.97),
    ("CCCc1cc(N2CCNC(=O)C2)nc2sc(C(N)=O)c(N)c12", "Inhibitor of nuclear factor kappa-B kinase subunit beta (Homo sapiens, UniProt O14920)", 5.70),
    ("CCCc1cc(N2CCCNCC2)nc2sc(C(N)=O)c(N)c12", "Inhibitor of nuclear factor kappa-B kinase subunit beta (Homo sapiens, UniProt O14920)", 7.14),
    ("Cc1cc(OCCO)nc2sc(C(N)=O)c(N)c12", "Inhibitor of nuclear factor kappa-B kinase subunit beta (Homo sapiens, UniProt O14920)", 5.18),
]

// next entry
response.value for `Cc1cc(OCCCO)nc2sc(C(N)=O)c(N)c12` (field: pIC50) = 5.29

Where do these numbers come from? They come from ChEMBL document CHEMBL1156029.
